Documented Weight change across a set of compounds
Test system: Mus musculus
Test: Change in weight of P388 lymphocytic leukemia infected mice was determined when the compound was administered at dose of 6.25 mg/kg
Format: functional
readout name: Weight change (g)

{"columns": ["compound", "assay value"],
 "data": [
  ["COc1ccc2c(c1)CCn1c(C)c(COC(=O)NC(=O)NC3CCCCC3)c(COC(=O)NC(=O)NC3CCCCC3)c1-2", -3.3],
  ["CNC(=O)OCc1c(COC(=O)NC)c(-c2ccc(OC)cc2)n(C)c1C", -2.4],
  ["CNC(=O)OCc1cn2c(c1COC(=O)NC)-c1ccccc1CC2C (stereo unspecified)", -1],
  ["COc1ccc2c(c1)CCn1c(C)c(COC(=O)NC(C)C)c(COC(=O)NC(C)C)c1-2", -2.1],
  ["CCNC(=O)OCc1cn2c(c1COC(=O)NCC)-c1ccccc1CC2C (stereo unspecified)", -1.2],
  ["CNC(=O)OCc1c(COC(=O)NC)c(-c2ccccc2)n(C)c1C", -2.5]
]}

###

Recorded Weight change values for a group of compounds are listed next.
Tested on: Mus musculus
Assay: Change in weight of P388 lymphocytic leukemia infected mice was determined when the compound was administered at dose of 12.5 mg/kg
Assay type: functional
readout name: Weight change (g)

{"columns": ["compound", "assay value"],
 "data": [
  ["CNC(=O)OCc1cn2c(c1COC(=O)NC)-c1ccccc1CC2C (stereo not drawn)", -4.4],
  ["CNC(=O)OCc1c(COC(=O)NC)c(-c2ccccc2)n(C)c1C", -3.3],
  ["CNC(=O)OCc1c(COC(=O)NC)c(-c2ccc(OC)cc2)n2c1CCC2", -3.2],
  ["CCNC(=O)OCc1cn2c(c1COC(=O)NCC)-c1ccccc1CC2C (stereo not drawn)", -6],
  ["COc1ccc2c(c1)CCn1c(C)c(COC(=O)NC(=O)NC3CCCCC3)c(COC(=O)NC(=O)NC3CCCCC3)c1-2", -4.4],
  ["COc1ccc2c(c1)CCn1c(C)c(COC(=O)NC(C)C)c(COC(=O)NC(C)C)c1-2", -3],
  ["CNC(=O)OCc1c(COC(=O)NC)c(-c2ccc(OC)cc2)n(C)c1C", -3.2]
]}

###

Test system: Mus musculus
Assay: % T/C value was measured against Murine P388 Lymphocytic Leukemia cells in CDF1 mice at the dose 50 mg/kg
Assay type: functional

{"columns": ["compound", "T/C [%]"],
 "data": [
  ["CC1Cc2ccccc2-c2c(COC(=O)NC3CCCCC3)c(COC(=O)NC3CCCCC3)cn21 (configuration not stated)", 101],
  ["COc1ccc2c(c1)CCn1c(C)c(COC(=O)NC(=O)NC3CCCCC3)c(COC(=O)NC(=O)NC3CCCCC3)c1-2", 151],
  ["CNC(=O)OCc1c(COC(=O)NC)c(-c2ccccc2)n(C)c1C", 90],
  ["CNC(=O)OCc1c(COC(=O)NC)c(-c2ccc(OC)cc2)n(C)c1C", 152],
  ["CNC(=O)OCc1c(COC(=O)NC)c(-c2ccc(OC)cc2)n2c1CCC2", 131],
  ["CNC(=O)OCc1c(COC(=O)NC)c(-c2ccccc2)n2c1CCC2", 124],
  ["CNC(=O)OCc1cn2c(c1COC(=O)NC)-c1ccccc1CC2C (configuration not stated)", 79]
]}
